Values were extracted from the Immune Epitope Database (IEDB).

IC50 values, listed per item
Target: HLA-A*02:03
Experiment: IEDB peptide-MHC binding, cellular MHC/competitive/fluorescence; bounds were set here for any values at or beyond the usual limits of such assays
Settings: source organism: Vaccinia virus WR
MEASURED_PARAMETER: IC50

>>> reading("CTEETKRNI")
"≥ 70 µM"
>>> reading("EIITGNKVKT")
"≥ 70 µM"
>>> reading("DVGCLLTDT")
"65.4 µM"
>>> reading("SVDVDIYDA")
"11.9 µM"
>>> reading("LQDIVNEHDI")
"38.2 µM"
>>> reading("EVIGLTTHCT")
"14.9 µM"
>>> reading("TVKNVDIIDL")
"8.31 µM"
>>> reading("VIPFDDIVRT")
"50.3 µM"
>>> reading("NIVTDLENRL")
"17.6 µM"
>>> reading("PLPSLEYGA")
"18.9 µM"
